The reported measurements were obtained from the RepoRT retention time repository (doi:10.1021/acs.analchem.2c02893).

ASSAY COMMENT: RP, Thermo Scientific Acclaim RSLC 120 C18, 100 × 2.1 mm, 2.2 µm, 30 °C, 0.2 mL/min, estimated dead time 1.1 min; A: 90% water + 10% methanol + 0.01% formic acid + 5 mM ammonium formate, pH 3.61; B: methanol + 0.01% formic acid + 5 mM ammonium formate, pH 3.61; gradient (min/%B) 0/1 1/1 2/39 13/99.9 15/99.9 15.1/1 20.1/1
CONDITION INFO: stereoisomer not certain
For each record, write down the corresponding LC retention time.

Query: Given the entry c1ccc2sc(SN3CCOCC3)nc2c1 , report its measured LC retention time.
Response: 9.85 min

Query: # lookup: LC retention time of CN(CC=CC#CC(C)(C)C)Cc1cccc2ccccc12
Response: 11 min

Query: For the compound CN1C(=O)CCS(=O)(=O)C1c1ccc(Cl)cc1 (stereo not given) , what LC retention time is on record?
Response: 5.94 min

Query: LC retention time lookup needed for C=C(C)C1Cc2c(ccc3c2OC2COc4cc(OC)c(OC)cc4C2C3=O)O1 (stereo not given) , thanks.
Response: 10.5 min

Query: Given O=C1CC2OCC=C3CN4CCC56c7ccccc7N1C5C2C3CC46 (stereo not given) , state its recorded LC retention time.
Response: 4.16 min

---

Kindly supply the reported LC retention time values for the records listed here.
ASSAY COMMENT: RP, Thermo Scientific Acclaim RSLC 120 C18, 100 × 2.1 mm, 2.2 µm, 30 °C, 0.2 mL/min, estimated dead time 1.1 min; A: 90% water + 10% methanol + 0.01% formic acid + 5 mM ammonium formate, pH 3.61; B: methanol + 0.01% formic acid + 5 mM ammonium formate, pH 3.61; gradient (min/%B) 0/1 1/1 2/39 13/99.9 15/99.9 15.1/1 20.1/1
CONDITION INFO: stereoisomer not certain
Could you give me the number in min? Just the number is fine.

Query: Quick one: LC retention time of COC(=O)NC(=S)Nc1ccccc1NC(=S)NC(=O)OC [Thiophanate-methyl] ?
Response: 6.93

Query: What does the record list as LC retention time for Oc1ccc(C=Cc2cc(O)cc(O)c2)cc1 [Resveratrol] ?
Response: 5.93

Query: Which LC retention time is reported for this compound? CCN(CCCCOC(=O)c1ccc(OC)c(OC)c1)C(C)Cc1ccc(OC)cc1 (stereo not drawn) [Mebeverine]
Response: 6.79

Query: Recorded LC retention time of COc1cc(CCN)cc(OC)c1OC [Mescaline] , please.
Response: 3.88

Query: Consider the compound shown here: C=CCN(CC=C)C(=O)CCl [Allidochlor] What is its recorded LC retention time?
Response: 6.37

Query: Param item = CC(C(=O)c1ccccc1)N(C)C (stereo not drawn) [Cathinone-Dimethyl] ; retrieve measured LC retention time.
Response: 3.64

Query: Reported LC retention time, compound NCC(O)c1ccccc1 (stereo not drawn) [Apophedrin (Phenylethanolamine)] : ____
Response: 2.84

Query: Requested field: LC retention time. Item: Cc1nnc(NS(=O)(=O)c2ccc(N)cc2)s1 [Sulfamethizole]
Response: 4.21

Query: GET /values?readout=LC retention time&item= CCOC(=O)C1=CC(OC(CC)CC)C(NC(C)=O)C(N)C1 (stereo not drawn) [Oseltamivir]
Response: 6.76

Query: So what does the record say about LC retention time for CC#CC1(O)CCC2C3CCC4=CC(=O)CCC4=C3C(c3ccc(N(C)C)cc3)CC21C (stereo not drawn) [Mifepristone] ?
Response: 11.1

Query: What LC retention time value was documented for this compound, CC(C)=NOCCOC(=O)C(C)Oc1ccc(Oc2cnc3cc(Cl)ccc3n2)cc1 (stereo not drawn) [Propaquizafop] ?
Response: 12.3

Query: Look up LC retention time: Cc1cc(C)nc(NS(=O)(=O)c2ccc(N)cc2)n1 [Sulfadimidine (Sulfamethazine)]
Response: 4.31

Query: Entry CCNc1nc(Cl)nc(NC(C)(C)C)n1 [Terbuthylazine] has what LC retention time?
Response: 9.36

Query: Which LC retention time value is on record for CCCC(C(=O)c1ccc2ccccc2c1)N1CCCC1 (stereo not drawn) [Naphyrone] ?
Response: 7.33

Query: Give its LC retention time value. Item: CCCCNc1cc(C(=O)O)cc(S(N)(=O)=O)c1Oc1ccccc1 [Bumetanide]
Response: 7.83

Query: Consider the compound CC(C)(N)Cc1ccccc1 [Phentermine] and give its measured LC retention time.
Response: 4.64

Query: Name the reported LC retention time value associated with the compound CNC(=O)N(C)c1nnc(C(C)(C)C)s1 [Tebuthiuron]
Response: 7.25

Query: Which LC retention time reading was recorded for the compound CNC(CC(C)C)C(=O)NC1C(=O)NC(CC(N)=O)C(=O)NC2C(=O)NC3C(=O)NC(C(=O)NC(C(=O)O)c4cc(O)cc(O)c4-c4cc3ccc4O)C(O)c3ccc(c(Cl)c3)Oc3cc2cc(c3OC2OC(CO)C(O)C(O)C2OC2CC(C)(N)C(O)C(C)O2)Oc2ccc(cc2Cl)C1O (stereo not drawn) [Vancomycin] ?
Response: 3.26
